Molecular target: Growth factor receptor-bound protein 2 (Homo sapiens)
Sequence (P62993 whole entry): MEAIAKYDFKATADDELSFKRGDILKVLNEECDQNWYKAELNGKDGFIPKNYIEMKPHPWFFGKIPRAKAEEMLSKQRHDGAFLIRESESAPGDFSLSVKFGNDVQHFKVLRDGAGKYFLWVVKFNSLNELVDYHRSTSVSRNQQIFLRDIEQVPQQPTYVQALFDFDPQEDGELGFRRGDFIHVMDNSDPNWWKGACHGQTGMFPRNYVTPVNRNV

compound_structure	units_text	Kd
NC(=O)C[C@H](NC(=O)C1(NC(=O)[C@@H](CC(=O)O)Cc2ccc(CP(=O)(O)O)cc2)CCCCC1)C(=O)NCCNc1ccc([N+](=O)[O-])c2nonc12	nM	119
NC(=O)C[C@H](NC(=O)C1(NC(=O)[C@@H](CC(=O)O)Cc2ccc(CP(=O)(O)O)cc2)CCCCC1)C(=O)NCCCc1cccc2ccccc12	nM	23.8
